Recorded values, source ChEMBL document CHEMBL4196175.

test: AUClast in mouse at 10 mg/kg, po; format: ADME, organism-based; design: dose 10 mg/kg, time 0 - last, route oral; details: in vivo
reportedEndpoint: AUC(0-t) (ng·h/mL)
Quick reminder: number only, in ng·h/mL, skip the unit.

[Q] Which value of AUC(0-t) has been reported for `Cc1ccc(NC(=O)c2cccc(C(F)(F)F)c2)cc1N1Cc2cnc(N)nc2N(C)C1=O` in the records?
[A] 36400

---

Molecular target: UniProt P05177
Sequence (P05177 whole entry): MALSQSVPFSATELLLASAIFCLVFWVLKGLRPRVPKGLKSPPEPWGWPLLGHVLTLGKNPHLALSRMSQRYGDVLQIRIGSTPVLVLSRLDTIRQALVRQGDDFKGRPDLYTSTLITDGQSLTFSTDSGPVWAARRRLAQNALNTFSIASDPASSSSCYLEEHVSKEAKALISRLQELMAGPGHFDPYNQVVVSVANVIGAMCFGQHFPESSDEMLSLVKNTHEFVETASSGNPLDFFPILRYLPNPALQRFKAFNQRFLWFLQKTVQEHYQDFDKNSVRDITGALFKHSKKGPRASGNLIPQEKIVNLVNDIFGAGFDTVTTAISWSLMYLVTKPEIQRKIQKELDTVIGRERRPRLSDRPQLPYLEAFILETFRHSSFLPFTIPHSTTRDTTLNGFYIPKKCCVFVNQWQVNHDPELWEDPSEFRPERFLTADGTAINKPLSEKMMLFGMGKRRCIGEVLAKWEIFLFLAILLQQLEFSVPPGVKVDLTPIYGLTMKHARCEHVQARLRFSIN
Assay: Inhibition of CYP1A2 (unknown origin) assessed as activity remaining at 10 uM relative to control
Format: ADME
Settings: read-out: Activity
Kindly supply the reported activity at 10 µM values for the records listed here.
// return numeric value only (unit: %, not printed)

[Q] Given the molecule `CCN1CCN(c2ccc(Nc3ncc4c(n3)N(C)C(=O)N(c3cc(NC(=O)c5cccc(C(F)(F)F)c5)ccc3C)C4)cc2)CC1` , what is its reported activity at 10 µM?
[A] 92.1

[Q] # lookup: activity at 10 µM of `Cc1ccc(NC(=O)c2cccc(C(F)(F)F)c2)cc1N1Cc2cnc(N)nc2N(C)C1=O`
[A] 89.2

[Q] Reported activity at 10 µM for Cc1ccc(Nc2ncc3c(n2)N(C)C(=O)N(c2cc(NC(=O)c4ccc(CN5CCC(N(C)C)C5)c(C(F)(F)F)c4)ccc2C)C3)cn1 (centres undefined) : what is it?
[A] 67.5

[Q] Please give the measured activity at 10 µM for this molecule: `CCN1CCN(C(=O)c2ccc(Nc3ncc4c(n3)N(C)C(=O)N(c3cc(NC(=O)c5cccc(C(F)(F)F)c5)ccc3C)C4)cn2)CC1`
[A] 81.8

[Q] May I ask what activity at 10 µM has been recorded for `CC(=O)N1CCN(c2ccc(Nc3ncc4c(n3)N(C)C(=O)N(c3cc(NC(=O)c5cccc(C(F)(F)F)c5)ccc3C)C4)cn2)CC1` ?
[A] 87.2

[Q] Give its activity at 10 µM value. Item: `Cc1cc(Nc2ncc3c(n2)N(C)C(=O)N(c2cc(NC(=O)c4cccc(C(F)(F)F)c4)ccc2C)C3)n(C)n1`
[A] 88.2

[Q] Would you mind telling me what activity at 10 µM value was observed for `Cc1ccc(NC(=O)c2cccc(C(F)(F)F)c2)cc1N1Cc2cnc(Nc3cnn(C)c3)nc2N(C)C1=O` ?
[A] 88

[Q] Given `CCN1CCN(c2ccc(Nc3ncc4c(n3)N(C)C(=O)N(c3cc(NC(=O)c5cccc(C(F)(F)F)c5)ccc3C)C4)cn2)CC1` , state its recorded activity at 10 µM.
[A] 89.7

[Q] Entry `Cc1ccc(Nc2ncc3c(n2)N(C)C(=O)N(c2cc(NC(=O)c4cccc(C(F)(F)F)c4)ccc2C)C3)cn1` has what activity at 10 µM?
[A] 93.2
